target: telomerase (Homo sapiens, UniProt O14746); construct: made in house; host or cells: 293 cells over-expressing hTERT; assay: Bio-Tel FlashPlate telomerase inhibition assay; format: biochemical; conditions: Table 1; oligonucleotide has N3′→P5′ thio-phosphoramidate (NPS) internucleoside linkages; read-out: IC50 NPS
Sequence (O14746 whole entry): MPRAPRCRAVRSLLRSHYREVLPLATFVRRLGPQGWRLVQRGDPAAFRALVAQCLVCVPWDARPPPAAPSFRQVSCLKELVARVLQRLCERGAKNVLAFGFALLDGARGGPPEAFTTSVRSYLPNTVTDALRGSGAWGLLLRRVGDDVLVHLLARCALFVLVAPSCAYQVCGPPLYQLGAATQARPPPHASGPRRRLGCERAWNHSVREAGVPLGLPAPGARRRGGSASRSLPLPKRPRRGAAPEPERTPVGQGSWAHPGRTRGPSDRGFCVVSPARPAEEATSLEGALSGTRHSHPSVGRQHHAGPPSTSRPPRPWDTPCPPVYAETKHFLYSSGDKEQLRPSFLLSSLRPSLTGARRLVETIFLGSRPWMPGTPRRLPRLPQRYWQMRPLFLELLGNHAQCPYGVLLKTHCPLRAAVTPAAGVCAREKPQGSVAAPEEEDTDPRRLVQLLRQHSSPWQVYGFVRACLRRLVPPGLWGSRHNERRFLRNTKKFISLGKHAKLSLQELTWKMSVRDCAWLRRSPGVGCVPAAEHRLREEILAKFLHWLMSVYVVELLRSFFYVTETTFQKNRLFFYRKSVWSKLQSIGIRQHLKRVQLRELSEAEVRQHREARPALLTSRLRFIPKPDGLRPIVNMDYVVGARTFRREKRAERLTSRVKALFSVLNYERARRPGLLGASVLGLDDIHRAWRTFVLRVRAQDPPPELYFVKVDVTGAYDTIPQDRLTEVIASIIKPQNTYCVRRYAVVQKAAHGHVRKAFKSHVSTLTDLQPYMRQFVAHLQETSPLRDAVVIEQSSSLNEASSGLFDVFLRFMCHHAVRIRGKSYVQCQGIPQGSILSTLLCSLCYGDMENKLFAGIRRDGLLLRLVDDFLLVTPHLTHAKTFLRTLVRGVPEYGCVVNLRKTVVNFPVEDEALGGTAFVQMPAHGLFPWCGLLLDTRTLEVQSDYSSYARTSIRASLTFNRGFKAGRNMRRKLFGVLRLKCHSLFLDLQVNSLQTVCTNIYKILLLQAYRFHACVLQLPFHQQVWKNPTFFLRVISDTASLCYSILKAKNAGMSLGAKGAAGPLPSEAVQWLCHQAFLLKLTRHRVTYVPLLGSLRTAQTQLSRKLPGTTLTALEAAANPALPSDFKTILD
Sequence (O60832 whole entry partner): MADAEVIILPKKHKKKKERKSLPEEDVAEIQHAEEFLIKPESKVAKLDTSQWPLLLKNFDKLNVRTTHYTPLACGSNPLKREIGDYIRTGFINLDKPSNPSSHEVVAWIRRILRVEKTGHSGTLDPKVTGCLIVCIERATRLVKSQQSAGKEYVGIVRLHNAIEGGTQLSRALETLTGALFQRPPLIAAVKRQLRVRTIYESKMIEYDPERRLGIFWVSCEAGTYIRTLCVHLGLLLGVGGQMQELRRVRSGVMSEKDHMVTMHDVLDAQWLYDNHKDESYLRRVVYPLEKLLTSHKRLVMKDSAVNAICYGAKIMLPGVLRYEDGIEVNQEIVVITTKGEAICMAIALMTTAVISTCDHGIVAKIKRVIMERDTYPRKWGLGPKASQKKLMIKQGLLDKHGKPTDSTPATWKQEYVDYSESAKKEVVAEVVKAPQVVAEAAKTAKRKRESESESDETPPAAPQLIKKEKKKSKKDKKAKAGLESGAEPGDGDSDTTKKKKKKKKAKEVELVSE
Sequence (Q9NPE3 whole entry partner): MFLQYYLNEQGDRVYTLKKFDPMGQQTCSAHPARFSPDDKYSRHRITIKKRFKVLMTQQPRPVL
Sequence (Q9NX24 whole entry partner): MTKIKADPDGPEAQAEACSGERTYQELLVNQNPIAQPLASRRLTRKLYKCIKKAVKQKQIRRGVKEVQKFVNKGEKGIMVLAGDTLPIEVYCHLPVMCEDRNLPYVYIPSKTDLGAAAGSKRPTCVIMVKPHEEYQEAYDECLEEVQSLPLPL
Sequence (Q9NY12 whole entry partner): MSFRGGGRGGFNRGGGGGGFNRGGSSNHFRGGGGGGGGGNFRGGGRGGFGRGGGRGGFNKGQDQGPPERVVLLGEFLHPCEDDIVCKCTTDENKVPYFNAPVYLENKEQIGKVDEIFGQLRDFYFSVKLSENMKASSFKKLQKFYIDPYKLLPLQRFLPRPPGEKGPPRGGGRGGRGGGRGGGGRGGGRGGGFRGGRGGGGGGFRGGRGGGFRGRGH
endpoint: IC50 (nM)
Dear colleague, please return just the value in nM, with no unit written.

>>> print(df.to_string())
                               itemsequence                         measurementtarget  endpoint  unitdescriptor  quantitativereadout
0  GTTAGG (unconjugated): unconjugated oligonucleotide GTTAGG (SEQ ID: 7), NP and NPS forms  telomerase (Homo sapiens, UniProt O14746)      IC50              nM                  120

// switching to the query sequence
## Task Could you share what IC50 was measured for TTAGGG (unconjugated): unconjugated oligonucleotide TTAGGG (SEQ ID: 8), NP and NPS forms , tested on telomerase (Homo sapiens, UniProt O14746)?
## Result 1200
